Entry source: patent US8981112B2

Tested on: brain amyloid peptides Aβ1-x
Test: Rat Brain Aβ Lowering Assay (Assay 5)
Type: in vivo
Conditions: single oral dose 25 mg/kg, 3 hrs after dosing
Item-by-item account of % Aβ Reduction
Just the number in %, nothing appended.

>  <MOLECULE>
CO[C@H]1[C@H](C)C[C@@]2(Cc3ccc(C#N)cc3[C@]23N=C(N)N(C[C@@H]2CCCO2)C3=O)C[C@@H]1C

>  <% Aβ Reduction, %>
62

$$$$
>  <MOLECULE>
CO[C@H]1[C@H](C)C[C@@]2(Cc3ccc(C#N)cc3[C@]23N=C(N)N(C[C@@H]2CCO2)C3=O)C[C@@H]1C (stereo in doubt)

>  <% Aβ Reduction, %>
56

$$$$
>  <MOLECULE>
CO[C@H]1[C@H](C)C[C@@]2(Cc3ccc(C#N)cc3[C@]23N=C(N)N(CC(C)(C)F)C3=O)C[C@@H]1C

>  <% Aβ Reduction, %>
70

$$$$

Fill in: % Aβ Reduction of `CO[C@H]1[C@H](C)C[C@@]2(Cc3ccc(C#N)cc3[C@]23N=C(N)N(C[C@H]2CCCO2)C3=O)C[C@@H]1C` is ___
67

Report % Aβ Reduction for `CO[C@H]1[C@H](C)C[C@@]2(Cc3ccc(F)cc3[C@]23N=C(N)N(CC2(C)OCCO2)C3=O)C[C@@H]1C` please.
78

Requested read-out: % Aβ Reduction. Entry: `CO[C@H]1[C@H](C)C[C@@]2(Cc3ccc(C#N)cc3[C@]23N=C(N)N(CC2(F)CCOCC2)C3=O)C[C@@H]1C`
68

Which % Aβ Reduction value is on record for `CO[C@H]1CC[C@@]2(Cc3ccc(C#N)cc3[C@]23N=C(N)N(CC2(C)COC2)C3=O)C[C@@H]1C` ?
37

Please report the recorded % Aβ Reduction for `CO[C@H]1[C@H](C)C[C@@]2(Cc3ccc(C#N)cc3[C@]23N=C(N)N(CC2(C)OCCO2)C3=O)C[C@@H]1C` .
73

Sample `CO[C@H]1[C@H](C)C[C@@]2(Cc3ccc(C#N)cc3[C@]23N=C(N)N(C2COC2)C3=O)C[C@@H]1C` — what was its % Aβ Reduction?
39

Consider the molecule `CC[C@@H]1C[C@]2(CC[C@H]1OC)Cc1ccc(C#N)cc1[C@]21N=C(N)N(CC2(F)CCOCC2)C1=O` and give its measured % Aβ Reduction.
75

Reported % Aβ Reduction for `CO[C@H]1CC[C@@]2(Cc3ccc(C#N)cc3[C@]23N=C(N)N(Cc2ccncn2)C3=O)C[C@@H]1C` : what is it?
37

# % Aβ Reduction lookup, item `CC[C@@H]1C[C@@]2(Cc3ccc(C#N)cc3[C@]23N=C(N)N(CC(C)(C)F)C3=O)C[C@H](C)[C@H]1OC`
71

###

As shown below, each of these compounds has a reported inhibition at 10 µM value.
Target: hERG (Homo sapiens (Human))
Sequence (Q12809 whole entry): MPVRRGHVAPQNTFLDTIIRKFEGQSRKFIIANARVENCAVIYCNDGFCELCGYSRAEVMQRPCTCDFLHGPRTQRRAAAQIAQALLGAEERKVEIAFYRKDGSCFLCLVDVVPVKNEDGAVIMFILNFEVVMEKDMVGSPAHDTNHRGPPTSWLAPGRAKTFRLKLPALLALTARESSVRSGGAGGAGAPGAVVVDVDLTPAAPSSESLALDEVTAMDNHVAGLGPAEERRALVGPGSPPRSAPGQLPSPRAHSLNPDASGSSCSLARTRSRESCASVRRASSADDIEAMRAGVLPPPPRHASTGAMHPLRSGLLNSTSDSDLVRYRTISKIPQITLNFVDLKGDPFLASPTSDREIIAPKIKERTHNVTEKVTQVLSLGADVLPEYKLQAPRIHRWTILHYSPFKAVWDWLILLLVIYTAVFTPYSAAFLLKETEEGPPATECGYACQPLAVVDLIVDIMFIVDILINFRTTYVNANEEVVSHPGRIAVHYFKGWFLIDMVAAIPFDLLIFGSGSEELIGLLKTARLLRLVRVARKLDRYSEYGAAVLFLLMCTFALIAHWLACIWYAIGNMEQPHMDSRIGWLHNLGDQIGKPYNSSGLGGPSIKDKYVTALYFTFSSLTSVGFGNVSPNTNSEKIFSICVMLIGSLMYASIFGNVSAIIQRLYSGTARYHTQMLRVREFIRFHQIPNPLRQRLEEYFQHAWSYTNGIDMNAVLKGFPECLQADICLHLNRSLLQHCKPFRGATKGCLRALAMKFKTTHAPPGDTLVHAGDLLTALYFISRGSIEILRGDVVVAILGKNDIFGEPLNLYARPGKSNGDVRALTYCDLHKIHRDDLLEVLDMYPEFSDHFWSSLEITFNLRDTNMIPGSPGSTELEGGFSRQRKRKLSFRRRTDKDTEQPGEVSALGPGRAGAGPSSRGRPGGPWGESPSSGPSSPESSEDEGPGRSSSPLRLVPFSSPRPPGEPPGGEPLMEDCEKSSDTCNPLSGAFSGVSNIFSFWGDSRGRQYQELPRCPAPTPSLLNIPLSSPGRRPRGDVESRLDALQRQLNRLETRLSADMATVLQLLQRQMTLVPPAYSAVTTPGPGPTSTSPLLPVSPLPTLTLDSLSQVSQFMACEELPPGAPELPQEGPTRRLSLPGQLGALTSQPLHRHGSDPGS
Assay: hERG-Channel Assay (Assay 3), whole-cell patch clamp
Format: cell-based
Details: human, HEK293 cells stably transfected with hERG, pH 7.4; 10 μM, HEK293 cells transfected with hERG
Report the value in % with no unit label.

Check out these entries, answers already filled in.
>  <COMPOUND>
CO[C@H]1[C@H](C)C[C@@]2(Cc3ccc(C#N)cc3[C@]23N=C(N)N(CC2COC2)C3=O)C[C@@H]1C [Example 13]

>  <TEST TARGET>
hERG (Homo sapiens (Human))

>  <READOUT VALUE>
18

$$$$
>  <COMPOUND>
CO[C@H]1[C@H](C)C[C@@]2(Cc3ccc(C#N)cc3[C@]23N=C(N)N(Cc2ncc(F)cn2)C3=O)C[C@@H]1C [Example 10]

>  <TEST TARGET>
hERG (Homo sapiens (Human))

>  <READOUT VALUE>
38

$$$$

Any idea what its inhibition at 10 µM is? The compound is CO[C@H]1[C@H](C)C[C@@]2(Cc3ccc(C#N)cc3[C@]23N=C(N)N(C[C@@H]2CCCO2)C3=O)C[C@@H]1C [Example 15]
11

Please report the recorded inhibition at 10 µM for CO[C@H]1[C@H](C)C[C@@]2(Cc3ccc(C#N)cc3[C@]23N=C(N)N(C[C@H]2COCCO2)C3=O)C[C@@H]1C [Example 22] .
9

So what does the record say about inhibition at 10 µM for CO[C@H]1[C@H](C)C[C@@]2(Cc3ccc(C#N)cc3[C@]23N=C(N)N(CCC2COC2)C3=O)C[C@@H]1C [Example 19] ?
8

Item under review: CC[C@@H]1C[C@]2(CC[C@H]1OC)Cc1ccc(C#N)cc1[C@]21N=C(N)N(CC2CCOCC2)C1=O [Example 2] . Reported inhibition at 10 µM?
22

Record request: inhibition at 10 µM value, item CC[C@@H]1C[C@]2(CC[C@H]1OC)Cc1ccc(C#N)cc1[C@]21N=C(N)N(CC(C)(C)F)C1=O [Example 3]
9

###

Target: truncated human beta-secretase, BACE1 (amino acids 1-454) (Homo sapiens (Human), UniProt P56817)
Sequence (P56817 22-454): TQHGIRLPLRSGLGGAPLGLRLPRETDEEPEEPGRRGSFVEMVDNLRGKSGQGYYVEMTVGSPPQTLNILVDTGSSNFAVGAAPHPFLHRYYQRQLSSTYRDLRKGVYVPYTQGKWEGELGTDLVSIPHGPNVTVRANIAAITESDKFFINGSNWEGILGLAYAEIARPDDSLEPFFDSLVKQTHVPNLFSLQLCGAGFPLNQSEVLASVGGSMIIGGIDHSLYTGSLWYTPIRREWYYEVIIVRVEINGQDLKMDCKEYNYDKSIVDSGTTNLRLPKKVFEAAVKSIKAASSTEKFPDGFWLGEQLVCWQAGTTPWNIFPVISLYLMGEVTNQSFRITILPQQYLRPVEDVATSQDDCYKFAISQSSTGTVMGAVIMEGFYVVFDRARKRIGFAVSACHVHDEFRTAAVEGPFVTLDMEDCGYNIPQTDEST
Assay: BACE1 Assay (Assay 1), fluorescence quench assay
Assay type: biochemical
Settings: read-out: BACE1 IC50 nM (assay 1)
Reported IC50 values for a set of molecules
Write the value in nM as a bare number.

Example results:
>  <MOLECULE>
CO[C@H]1[C@H](C)C[C@@]2(Cc3ccc(C#N)cc3[C@]23N=C(N)N(CC2(C)COC2)C3=O)C[C@@H]1C

>  <UNIT INFO>
nM

>  <IC50>
4

$$$$
>  <MOLECULE>
CO[C@H]1[C@H](C)C[C@@]2(Cc3ccc(C#N)cc3[C@]23N=C(N)N(C[C@H]2CCCO2)C3=O)C[C@@H]1C

>  <UNIT INFO>
nM

>  <IC50>
5

$$$$
>  <MOLECULE>
CO[C@H]1[C@H](C)C[C@@]2(Cc3ccc(C#N)cc3[C@]23N=C(N)N(C[C@@H]2CCO2)C3=O)C[C@@H]1C (stereo in doubt)

>  <UNIT INFO>
nM

>  <IC50>
9

$$$$
>  <MOLECULE>
CO[C@H]1[C@H](C)C[C@@]2(Cc3ccc(C#N)cc3[C@]23N=C(N)N(CC(C)(C)F)C3=O)C[C@@H]1C

>  <UNIT INFO>
nM

>  <IC50>
14

$$$$
>  <MOLECULE>
CO[C@H]1[C@H](C)C[C@@]2(Cc3ccc(C#N)cc3[C@]23N=C(N)N(CC2COC2)C3=O)C[C@@H]1C

>  <UNIT INFO>
nM

>  <IC50>
9

$$$$
>  <MOLECULE>
CO[C@H]1[C@H](C)C[C@@]2(Cc3ccc(C#N)cc3[C@]23N=C(N)N(C[C@@H]2CCCO2)C3=O)C[C@@H]1C

>  <UNIT INFO>
nM

>  <IC50>
11

$$$$

Quick one: IC50 for `CC[C@@H]1C[C@]2(CC[C@H]1OC)Cc1ccc(C#N)cc1[C@]21N=C(N)N(CC(C)(C)F)C1=O` ?
10

Quick one: IC50 of `CO[C@H]1CC[C@@]2(Cc3ccc(C#N)cc3[C@]23N=C(N)N(CC2(C)COC2)C3=O)C[C@@H]1C` ?
5

Query (molecule): `CC[C@@H]1C[C@]2(CC[C@H]1OC)Cc1ccc(C#N)cc1[C@]21N=C(N)N(Cc2ncccn2)C1=O` ; field requested: IC50
11

###

Experiment: In Vitro Phospholipidosis Assay (Assay 4), Nile red staining
Assay type: cell-based
Details: human, first effect concentration, U937 cells, read-out: Phospholipidosis FEC IC50 μM (assay 4)
Parameter: IC50 at 48 h. Scope: all listed entries.
Give your result in µM as a bare value.

>  <COMPOUND>
CO[C@H]1[C@H](C)C[C@@]2(Cc3ccc(C#N)cc3[C@]23N=C(N)N(Cc2ccncn2)C3=O)C[C@@H]1C [Example 24]

>  <UNIT INFO>
µM

>  <IC50 at 48 h>
200

$$$$

Report IC50 at 48 h for CC[C@@H]1C[C@]2(CC[C@H]1OC)Cc1ccc(C#N)cc1[C@]21N=C(N)N(CC2CCOCC2)C1=O [Example 2] please.
200

###

Entries and their IC50 at 48 h
Assay: In Vitro Phospholipidosis Assay (Assay 4), Nile red staining
Assay type: cell-based
Details: human, first effect concentration, U937 cells, read-out: Phospholipidosis FEC IC50 μM (assay 4)
Your answer should be a plain number; it is taken to be in µM.

>  <MOLECULE>
CC[C@H]1C[C@@]2(CC[C@@H]1OC)Cc1ccc(C#N)cc1[C@]21N=C(N)N(C[C@H]2CCCO2)C1=O [Example 5]

>  <UNIT INFO>
µM

>  <IC50 at 48 h>
200

$$$$

Pending molecule:
Requested field: IC50 at 48 h. Item: CC[C@@H]1C[C@]2(CC[C@H]1OC)Cc1ccc(C#N)cc1[C@]21N=C(N)N(Cc2ncccn2)C1=O [Example 1]
200
